Origin of the recorded values: PubChem BioAssay (NCI)

tested on: SF-268 CNS; experiment: NCI tumour cell line growth inhibition, 48 h; in the data active = GI50 below about 0.43 µM; inactive = the rest
Entry note: the call must match one of T for active, F for inactive

INSERT INTO measurements (smiles_repr, classification) VALUES
  ('C=C1C(=O)O[C@H]2[C@H]1CC/C(COC(=O)N[C@@H](Cc1c[nH]c3ccccc13)C(=O)OC)=C\CC[C@@]1(C)O[C@@H]21', 'F'),
  ('Cc1cc(Nc2ncc(Cl)c(Nc3ccccc3S(=O)(=O)C(C)C)n2)c(OC(C)C)cc1C1CCNCC1', 'F');

Name the outcome recorded for COC1(OC)C[C@H](C)[C@@]23O[C@]24c2cc(O)c5c(c2N[C@H]3C#C/C=C\C#C[C@]14O)C(=O)c1ccccc1C5=O in the assay. T
